Target: DβH (Homo sapiens)
Construct: reaction mixture (total volume 500 μl) contained: cellular homogenate (75 μg total protein); host or cells: SK-N-SH cell homogenate
Sequence (P09172 1-617): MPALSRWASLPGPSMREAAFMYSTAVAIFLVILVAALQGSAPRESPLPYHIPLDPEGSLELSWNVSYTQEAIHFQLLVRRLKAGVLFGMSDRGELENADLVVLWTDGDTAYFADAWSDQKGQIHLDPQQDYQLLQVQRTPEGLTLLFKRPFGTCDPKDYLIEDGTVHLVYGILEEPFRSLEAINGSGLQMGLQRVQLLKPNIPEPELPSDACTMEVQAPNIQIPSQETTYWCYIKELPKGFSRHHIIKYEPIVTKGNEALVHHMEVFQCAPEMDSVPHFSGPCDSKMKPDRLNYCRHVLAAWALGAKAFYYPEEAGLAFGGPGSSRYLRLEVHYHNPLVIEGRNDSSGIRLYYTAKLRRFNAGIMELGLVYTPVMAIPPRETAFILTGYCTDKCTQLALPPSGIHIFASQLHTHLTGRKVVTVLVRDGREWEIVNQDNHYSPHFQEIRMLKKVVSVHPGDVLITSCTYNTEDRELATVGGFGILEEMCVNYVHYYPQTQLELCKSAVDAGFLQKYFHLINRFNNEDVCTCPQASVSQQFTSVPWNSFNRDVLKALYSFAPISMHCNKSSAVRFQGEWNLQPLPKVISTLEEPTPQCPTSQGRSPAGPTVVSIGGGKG
Assay: DβH inhibition cell assay (SK-N-SH cellular homogenates, tyramine to octopamine)
Assay type: biochemical
Conditions: inhibitor 1 μM; SK-N-SH cell homogenate; read-out: DβH activity in % of Ctrl (1 μM)
experimental_endpoint: remaining activity at 1 µM (%)
Write the answer as a number in %, unit excluded.

These recorded examples may help you get a feel for the data.
CNC(=S)N1C[C@@]2(c3cc(F)cc(F)c3)C[C@H]2C1=O; 0
NC(=S)N1CC2CC2(c2cc(F)ccc2F)C1 (stereo not drawn); 0
[2H]C([2H])([2H])c1[nH]c(=S)n2c1[C@@H]1C[C@]1(c1cc(Cl)ccc1F)C2; 0

Can you look up the measured remaining activity at 1 µM of Fc1ccc(Cl)cc1[C@@]12C[C@@H]1c1c[nH]c(=S)n1C2 for me? 15.9

Another compound to check: S=c1[nH]cc2n1C[C@@]1(c3cc(Cl)cc(Cl)c3)C[C@@H]21 17.2

Another compound to check: NNC(=S)N1CC2CC2(c2cc(F)cc(F)c2)C1 (stereo not drawn) 29.1

Another compound to check: Fc1ccc(F)c([C@@]23C[C@@H]2c2c[nH]c(=S)n2C3)c1F 14.6

Another compound to check: NC(=S)N1CCC(c2cc(F)cc(F)c2)C1 (stereo not drawn) 11.5

Another compound to check: [2H]C([2H])([2H])n1cc2n(c1=S)C[C@@]1(c3cc(Cl)ccc3F)C[C@@H]21 0
